Every entry's value here was drawn from paper PMC9184620.

- target-or-test-system: T1, 6x His-tagged recombinant human R1 (RRM1) (human, UniProt P23921 1-792)
- T1 construct: also called His-R1; hRRM1
- T1 sequence (looked up): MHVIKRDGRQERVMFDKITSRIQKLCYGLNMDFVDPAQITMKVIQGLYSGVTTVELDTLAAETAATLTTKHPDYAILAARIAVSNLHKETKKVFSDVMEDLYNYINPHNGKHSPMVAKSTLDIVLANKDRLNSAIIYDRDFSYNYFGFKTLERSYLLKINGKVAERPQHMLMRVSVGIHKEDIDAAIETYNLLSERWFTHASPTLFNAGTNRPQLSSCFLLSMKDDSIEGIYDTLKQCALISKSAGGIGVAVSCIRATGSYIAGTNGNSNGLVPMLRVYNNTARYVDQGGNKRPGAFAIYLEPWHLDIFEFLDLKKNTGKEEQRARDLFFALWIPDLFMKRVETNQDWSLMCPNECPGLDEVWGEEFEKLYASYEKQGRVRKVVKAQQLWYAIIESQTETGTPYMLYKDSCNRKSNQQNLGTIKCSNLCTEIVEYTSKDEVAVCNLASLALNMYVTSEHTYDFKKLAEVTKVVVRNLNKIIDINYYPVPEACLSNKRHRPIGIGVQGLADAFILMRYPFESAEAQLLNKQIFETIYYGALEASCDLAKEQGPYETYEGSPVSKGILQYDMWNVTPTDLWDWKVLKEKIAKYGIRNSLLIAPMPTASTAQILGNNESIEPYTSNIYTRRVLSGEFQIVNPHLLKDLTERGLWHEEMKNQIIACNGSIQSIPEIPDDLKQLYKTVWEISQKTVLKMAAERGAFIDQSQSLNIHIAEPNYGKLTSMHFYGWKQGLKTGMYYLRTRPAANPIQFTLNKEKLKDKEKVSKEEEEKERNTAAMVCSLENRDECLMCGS
- assay-details: AlphaScreen or HTRF; AlphaLISA: 4.3 ug/mL His-R1 (Nickel Chelate Acceptor beads), 3.3 ug/mL GST-R2 (Glutathione Donor beads), with or without test compound; 50 mmol/L HEPES, 4 mmol/L magnesium acetate, 100 mmol/L KCl, 6 mmol/L DTT, 2 mmol/L ATP, 0.24 mmol/L NADPH, 0.010 mmol/L CDP, 0.1 vol% polysorbate 20, 1 vol% DMSO; 60 min, room temperature
- condition-parameters: both partners purified
Ends that are not written are not given here.
property: IC50 (µM)

INSERT INTO results (binder, property, recorded_number) VALUES
  ('Ac-FTLDADF (also called unlabeled P7; P7 peptide; source: synthetic peptide; bought: Peptide Institute, Inc) [P7 heptapeptide (N-AcFTLDADF)]', 'IC50', 9.22);
